src = the DeepSol protein solubility set

- experiment: soluble on expression in E. coli; label from the status in PepcDB or PDB records
reported_metric: soluble on expression in E. coli

- sequence_data: "MGSDKIHHHHHHMATTTIYEDLSAAYDLENMQALMATKDLLGAMLRIHFILEAFLDIWCNKITNCEDFFDLKRFTSFDTKLEISKKLGLPSELAVVFKLFNKIRNKFAHRPNYVICSNDLDNIHQAINQINTHDNHSKFTMIVFNEREIRWDTPDIPIIDSLLLNYFTLSQKVNDVFANEFSKRNISFTIQGQQA"
  reported_metric: "soluble on expression in E. coli"
  measured: "not soluble"
- sequence_data: "MGSDKIHHHHHHVTQNSPRQLSLPVYLPDDETFQSYYPASGNDELIQKLQASAQGGLSSSLYIYGPVKSGRTHLMHAACALANDKDRRTLYIPLGIHASISPALFEGLESLELICIDDIDAIAGHPIWEEAIFHLYNRIAEHKDCHLIVSGKASPTEAGFLLPDLVSRMQWGLIYQLQPMADDEKLLALQRRAAMRGLQLSDEVGRFLLTRMARDLRTLFDVLDKLDKASMVHQRKLTIPFIKEMLRL"
  reported_metric: "soluble on expression in E. coli"
  measured: "not soluble"
- sequence_data: "MVAPETERIRTQIRVYLLVEDLQRQFAAYLGTPTRARGYPPYEGEHALIVEVSPALAIERVIDLALRAVPGVQPGILYVERQFGVLEIHSASLDEVRRAGEAILAGTGNRAEDQLRPRVLFHDIITDITDQHAVILNRNRQASMILPGQSLLVYEMTPALFAAVAANEAERVAPGLTVVDVQMIGAAGRLYIGGSTDEVTVARDHITTVLSAIEGQEH"
  reported_metric: "soluble on expression in E. coli"
  measured: "not soluble"
